Target: T1, human EphA4 (Homo sapiens, UniProt P54764)
T1 construct: made in house; not restated for the human SEAP-His protein
T1 sequence (P54764 20-547): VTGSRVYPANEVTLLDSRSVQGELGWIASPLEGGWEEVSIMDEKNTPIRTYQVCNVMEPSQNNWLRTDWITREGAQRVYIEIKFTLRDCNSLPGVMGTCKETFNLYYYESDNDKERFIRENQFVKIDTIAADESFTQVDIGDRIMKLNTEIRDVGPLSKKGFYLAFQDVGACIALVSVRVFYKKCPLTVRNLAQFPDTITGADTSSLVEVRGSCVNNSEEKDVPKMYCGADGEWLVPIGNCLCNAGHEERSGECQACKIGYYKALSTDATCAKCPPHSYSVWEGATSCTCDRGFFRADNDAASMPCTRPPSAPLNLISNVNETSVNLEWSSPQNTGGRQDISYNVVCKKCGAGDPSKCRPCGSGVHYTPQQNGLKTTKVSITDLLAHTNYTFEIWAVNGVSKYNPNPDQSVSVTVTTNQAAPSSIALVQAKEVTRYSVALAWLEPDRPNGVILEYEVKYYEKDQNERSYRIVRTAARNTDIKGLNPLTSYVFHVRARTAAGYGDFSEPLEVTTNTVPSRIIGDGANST
Test: Affinity of humanized antibodies by SPR (Biacore T200)
Type: binding
Conditions: human EphA4 extracellular region-SEAP-His; 1:1 binding model
Field: kd. Provide a value for each of the molecules that follow.
Quick reminder: number only, in s⁻¹, skip the unit.

Note to self: kd recorded for 155 (antibody, V domains shown, synthetic humanized antibody heavy chain variable region sequence; synthetic humanized antibody light chain variable region sequence) VH: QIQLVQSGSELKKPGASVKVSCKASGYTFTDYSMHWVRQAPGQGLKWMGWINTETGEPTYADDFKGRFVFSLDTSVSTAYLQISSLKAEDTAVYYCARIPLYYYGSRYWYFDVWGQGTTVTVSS VL: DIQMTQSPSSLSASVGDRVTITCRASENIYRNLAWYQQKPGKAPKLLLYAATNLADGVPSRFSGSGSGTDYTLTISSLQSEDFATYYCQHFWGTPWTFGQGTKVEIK was 0.00064

Measured kd, 142 (antibody, V domains shown, synthetic humanized antibody heavy chain variable region sequence; synthetic humanized antibody light chain variable region sequence) VH: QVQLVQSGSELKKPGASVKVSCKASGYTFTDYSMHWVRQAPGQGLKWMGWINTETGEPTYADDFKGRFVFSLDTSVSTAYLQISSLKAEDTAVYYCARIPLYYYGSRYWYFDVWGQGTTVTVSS VL: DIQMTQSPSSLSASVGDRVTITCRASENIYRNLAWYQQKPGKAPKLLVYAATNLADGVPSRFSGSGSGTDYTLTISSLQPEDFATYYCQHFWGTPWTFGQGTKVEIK : 0.0005

Data point: 140 (antibody, V domains shown, synthetic humanized antibody heavy chain variable region sequence; synthetic humanized antibody light chain variable region sequence) VH: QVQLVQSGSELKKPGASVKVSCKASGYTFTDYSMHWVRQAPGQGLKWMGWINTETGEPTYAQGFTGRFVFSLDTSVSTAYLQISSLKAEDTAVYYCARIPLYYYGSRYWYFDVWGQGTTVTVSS VL: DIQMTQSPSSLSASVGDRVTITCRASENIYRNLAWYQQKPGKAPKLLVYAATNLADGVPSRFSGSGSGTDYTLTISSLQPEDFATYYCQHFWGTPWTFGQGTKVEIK ; kd = 0.00043

Short answer for 132 (antibody, V domains shown, synthetic humanized antibody heavy chain variable region sequence; synthetic humanized antibody light chain variable region sequence) VH: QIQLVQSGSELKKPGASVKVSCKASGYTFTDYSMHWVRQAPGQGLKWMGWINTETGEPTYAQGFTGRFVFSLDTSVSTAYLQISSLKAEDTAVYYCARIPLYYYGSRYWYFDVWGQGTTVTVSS VL: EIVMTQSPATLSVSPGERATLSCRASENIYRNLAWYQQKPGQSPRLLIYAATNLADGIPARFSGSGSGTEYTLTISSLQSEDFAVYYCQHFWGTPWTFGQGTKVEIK : kd was 0.00031

Given item 154 (antibody, V domains shown, synthetic humanized antibody heavy chain variable region sequence; synthetic humanized antibody light chain variable region sequence) VH: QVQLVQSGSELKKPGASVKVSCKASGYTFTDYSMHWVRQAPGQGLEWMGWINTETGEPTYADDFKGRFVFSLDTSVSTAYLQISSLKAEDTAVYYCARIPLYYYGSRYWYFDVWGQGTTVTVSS VL: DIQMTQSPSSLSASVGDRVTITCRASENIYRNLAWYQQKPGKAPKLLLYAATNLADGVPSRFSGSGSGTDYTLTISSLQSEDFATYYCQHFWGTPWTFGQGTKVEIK , the value recorded as its kd is 0.00065

So for 145 (antibody, V domains shown, synthetic humanized antibody heavy chain variable region sequence; synthetic humanized antibody light chain variable region sequence) VH: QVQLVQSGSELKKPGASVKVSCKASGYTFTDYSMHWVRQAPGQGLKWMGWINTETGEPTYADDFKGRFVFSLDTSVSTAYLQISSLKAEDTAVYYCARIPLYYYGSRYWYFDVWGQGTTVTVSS VL: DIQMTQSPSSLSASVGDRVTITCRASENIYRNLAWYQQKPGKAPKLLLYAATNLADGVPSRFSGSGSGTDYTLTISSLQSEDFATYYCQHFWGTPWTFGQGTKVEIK , the logged kd turned out to be 0.00065

89 (antibody, V domains shown, constant regions without entry; synthetic humanized antibody light chain variable region sequence; synthetic humanized antibody heavy chain variable region sequence) VL: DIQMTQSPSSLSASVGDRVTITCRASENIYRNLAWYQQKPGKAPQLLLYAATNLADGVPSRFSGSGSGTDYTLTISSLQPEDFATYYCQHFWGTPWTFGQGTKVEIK VH: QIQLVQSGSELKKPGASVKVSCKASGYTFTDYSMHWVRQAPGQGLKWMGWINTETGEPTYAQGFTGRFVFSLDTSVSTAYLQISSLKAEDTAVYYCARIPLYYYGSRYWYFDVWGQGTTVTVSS yielded kd of 0.00041

Reference source for all entries: patent US10428140B2
